assay-protocol: Solubility of the compound in PBS buffer at 100 uM at pH 7.4 by UPLC/MS/MS analysis
Type: physicochemical
Hi, to clarify the labels: label 1 covers solubility at 100 µM from 3 µM upward, label 0 covers anything below 3 µM.

Example results:
O=C1CCC(c2ccc(NCC(=O)N3CCN(C(=O)C4CCN(c5ccc(NC(=O)c6cnc(Oc7ccccc7)nc6)cc5)CC4)CC3)cc2)C(=O)N1 (stereo not drawn)
label 1
Cn1cccc1C(=O)N1CCN(C(=O)Nc2ccc(N3CCC(C(=O)N4CCOCC4)CC3)cc2)CC1
label 1
O=C1CCC(N2C(=O)c3cccc(N4CCN(C(=O)C5CCN(c6ccc(NC(=O)c7cnc(Oc8ccccc8)nc7)cc6)CC5)CC4)c3C2=O)C(=O)N1 (stereo not drawn)
label 0
O=C(Nc1ccc(N2CCC(C(=O)N3CCOCC3)CC2)cc1)c1cnc(Oc2ccccc2)nc1
label 1

Query string: Could you tell me if the measured solubility at 100 µM of O=C1CCC(N2C(=O)c3ccc(N4CCN(C(=O)C5CCN(c6ccc(NC(=O)c7cnc(Oc8ccccc8)nc7)cc6)CC5)CC4)cc3C2=O)C(=O)N1 (stereo not drawn) reaches 3 µM or more?
Result string: label 0

Query string: Could you tell me if the measured solubility at 100 µM of O=C1CCC(N2C(=O)c3cc(F)c(N4CCN(C(=O)C5CCN(c6ccc(NC(=O)c7cnc(Oc8ccccc8)nc7)cc6)CC5)CC4)cc3C2=O)C(=O)N1 (stereo not drawn) reaches 3 µM or more?
Result string: label 0

Query string: Could you tell me if the measured solubility at 100 µM of Cn1cccc1C(=O)N1CCN(C(=O)Nc2ccc(N3CCC(C(=O)N4CCN(c5cccc6c5C(=O)N(C5CCC(=O)NC5=O)C6=O)CC4)CC3)cc2)CC1 (stereo not drawn) reaches 3 µM or more?
Result string: label 1

====

assay-protocol: Metabolic stability of the compound in human liver microsomes incubated for 60 mins in presence of NADPH by UPLC/MS/MS analysis
Format: ADME, Microsome
recorded-conditions: read-out: Stability
measured-property: remaining at 1 h (%)
Value expressed in %; do not type the unit.

O=C(Nc1ccc(N2CCC(C(=O)N3CCOCC3)CC2)cc1)c1cnc(Oc2ccccc2)nc1
80
Cn1cccc1C(=O)N1CCN(C(=O)Nc2ccc(N3CCC(C(=O)N4CCN(c5ccc6c(c5)C(=O)N(C5CCC(=O)NC5=O)C6=O)CC4)CC3)cc2)CC1 (stereo not drawn)
72
O=C1CCC(c2ccc(NCC(=O)N3CCN(C(=O)C4CCN(c5ccc(NC(=O)c6cnc(Oc7ccccc7)nc6)cc5)CC4)CC3)cc2)C(=O)N1 (stereo not drawn)
78
O=C1CCC(N2C(=O)c3cccc(N4CCN(C(=O)C5CCN(c6ccc(NC(=O)c7cnc(Oc8ccccc8)nc7)cc6)CC5)CC4)c3C2=O)C(=O)N1 (stereo not drawn)
75
O=C1CCC(N2C(=O)c3cc(F)c(N4CCN(C(=O)C5CCN(c6ccc(NC(=O)c7cnc(Oc8ccccc8)nc7)cc6)CC5)CC4)cc3C2=O)C(=O)N1 (stereo not drawn)
69
O=C1CCC(N2C(=O)c3ccc(N4CCN(C(=O)C5CCN(c6ccc(NC(=O)c7cnc(Oc8ccccc8)nc7)cc6)CC5)CC4)cc3C2=O)C(=O)N1 (stereo not drawn)
80
Cn1cccc1C(=O)N1CCN(C(=O)Nc2ccc(N3CCC(C(=O)N4CCN(c5cccc6c5C(=O)N(C5CCC(=O)NC5=O)C6=O)CC4)CC3)cc2)CC1 (stereo not drawn)
79

// switching to the query molecule
Query string: I would be grateful if you could share the reported remaining at 1 h for "Cn1cccc1C(=O)N1CCN(C(=O)Nc2ccc(N3CCC(C(=O)N4CCOCC4)CC3)cc2)CC1" .
Result string: 83

====

Listing of entries alongside the reported remaining at 10 min.
assay-protocol: Metabolic stability of the compound in human liver microsomes incubated for 10 mins in presence of NADPH by UPLC/MS/MS analysis
Assay type: ADME, Microsome
recorded-conditions: read-out: Stability
Value expressed in %; do not type the unit.

Check out these entries, answers already filled in.
Cn1cccc1C(=O)N1CCN(C(=O)Nc2ccc(N3CCC(C(=O)N4CCN(c5cccc6c5C(=O)N(C5CCC(=O)NC5=O)C6=O)CC4)CC3)cc2)CC1 (stereo not drawn)
93
O=C(Nc1ccc(N2CCC(C(=O)N3CCOCC3)CC2)cc1)c1cnc(Oc2ccccc2)nc1
96
Cn1cccc1C(=O)N1CCN(C(=O)Nc2ccc(N3CCC(C(=O)N4CCOCC4)CC3)cc2)CC1
92
O=C1CCC(N2C(=O)c3cc(F)c(N4CCN(C(=O)C5CCN(c6ccc(NC(=O)c7cnc(Oc8ccccc8)nc7)cc6)CC5)CC4)cc3C2=O)C(=O)N1 (stereo not drawn)
93
Cn1cccc1C(=O)N1CCN(C(=O)Nc2ccc(N3CCC(C(=O)N4CCN(c5ccc6c(c5)C(=O)N(C5CCC(=O)NC5=O)C6=O)CC4)CC3)cc2)CC1 (stereo not drawn)
90
O=C1CCC(c2ccc(NCC(=O)N3CCN(C(=O)C4CCN(c5ccc(NC(=O)c6cnc(Oc7ccccc7)nc6)cc5)CC4)CC3)cc2)C(=O)N1 (stereo not drawn)
89
O=C1CCC(N2C(=O)c3ccc(N4CCN(C(=O)C5CCN(c6ccc(NC(=O)c7cnc(Oc8ccccc8)nc7)cc6)CC5)CC4)cc3C2=O)C(=O)N1 (stereo not drawn)
93

// switching to the query compound
Query string: I would be grateful if you could share the reported remaining at 10 min for O=C1CCC(N2C(=O)c3cccc(N4CCN(C(=O)C5CCN(c6ccc(NC(=O)c7cnc(Oc8ccccc8)nc7)cc6)CC5)CC4)c3C2=O)C(=O)N1 (stereo not drawn) .
Result string: 89
